- tested.on: AC5 (UniProt P30803)
- Construct: IC50 AC5; other: recombinant AC proteins; other: THFA: in the presence of Gs-α/GTPαS/forskolin
- protocol.details: AC inhibition, recombinant AC proteins: AC5
- Format: biochemical
- applied.conditions: read-out: IC50 for AC5
experimental.readout: IC50 (nM)
One number for each entry, in nM.

### Prompt # get_value(readout='IC50', item= Nc1ncnc2c1ncn2[C@H]1C[C@H](OP(=O)(O)O)[C@@H](CO)O1 [2′-d-3′-AMP] )
### Response 820

====

- tested.on: AC3 (Rattus norvegicus)
- Construct: made in house
- Sequence (P21932 whole entry): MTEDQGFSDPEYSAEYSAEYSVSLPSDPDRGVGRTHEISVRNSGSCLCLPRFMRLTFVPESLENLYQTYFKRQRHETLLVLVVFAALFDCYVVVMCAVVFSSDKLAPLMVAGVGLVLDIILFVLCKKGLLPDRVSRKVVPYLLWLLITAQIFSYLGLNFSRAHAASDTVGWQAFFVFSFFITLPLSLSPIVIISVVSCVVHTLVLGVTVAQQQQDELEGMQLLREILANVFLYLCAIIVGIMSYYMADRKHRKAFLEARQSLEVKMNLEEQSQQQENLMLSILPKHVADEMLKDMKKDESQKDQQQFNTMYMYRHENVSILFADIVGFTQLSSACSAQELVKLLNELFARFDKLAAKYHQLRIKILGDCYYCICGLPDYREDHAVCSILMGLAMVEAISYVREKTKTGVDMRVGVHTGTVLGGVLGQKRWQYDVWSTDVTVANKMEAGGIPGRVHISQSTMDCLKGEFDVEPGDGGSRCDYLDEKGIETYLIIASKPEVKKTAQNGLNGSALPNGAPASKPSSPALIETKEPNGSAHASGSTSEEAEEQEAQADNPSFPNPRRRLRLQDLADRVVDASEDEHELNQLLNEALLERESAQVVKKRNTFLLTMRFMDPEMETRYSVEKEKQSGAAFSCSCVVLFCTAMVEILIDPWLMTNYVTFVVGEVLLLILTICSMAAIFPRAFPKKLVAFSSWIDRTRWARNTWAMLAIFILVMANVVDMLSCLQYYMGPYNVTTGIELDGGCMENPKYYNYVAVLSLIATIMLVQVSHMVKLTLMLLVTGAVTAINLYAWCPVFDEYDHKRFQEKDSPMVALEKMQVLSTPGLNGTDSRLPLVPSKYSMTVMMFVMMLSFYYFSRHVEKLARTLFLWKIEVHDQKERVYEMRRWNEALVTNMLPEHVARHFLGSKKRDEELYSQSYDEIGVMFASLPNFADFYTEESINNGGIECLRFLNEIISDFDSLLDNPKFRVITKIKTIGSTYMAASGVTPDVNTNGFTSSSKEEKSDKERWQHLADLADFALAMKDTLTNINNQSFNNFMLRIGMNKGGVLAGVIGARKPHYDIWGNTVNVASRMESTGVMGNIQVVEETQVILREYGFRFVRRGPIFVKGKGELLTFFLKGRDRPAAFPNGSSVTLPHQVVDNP
- protocol.details: AC inhibition, recombinant AC proteins: AC3
- Type: biochemical
experimental.readout: pIC50
Answers are plain numbers, as −log10 of the molar value.

### Prompt Give the reported pIC50 for Nc1ncnc2c1ncn2C1CCC(C(=O)NO)C1 (stereo not shown) (system: AC3 (Rattus norvegicus)).
### Response 4.95
